# study-system: orotidine 5′-monophosphate decarboxylase (OMPDC) (Saccharomyces cerevisiae, UniProt P03962, A160S/C155S/N267D/S2H)
# Sequence (P03962 2-267 S2H/C155S/A160S/N267D): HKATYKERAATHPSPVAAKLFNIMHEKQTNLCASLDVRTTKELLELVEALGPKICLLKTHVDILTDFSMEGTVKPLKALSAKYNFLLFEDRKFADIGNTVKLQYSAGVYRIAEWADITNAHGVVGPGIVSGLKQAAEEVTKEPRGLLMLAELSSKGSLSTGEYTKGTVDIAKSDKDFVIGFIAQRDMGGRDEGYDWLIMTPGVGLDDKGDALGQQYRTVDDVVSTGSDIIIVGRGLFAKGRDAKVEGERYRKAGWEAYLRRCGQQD
# assay-details: activation of FEO decarboxylation by added phosphite, nonlinear fit to eq […]
measure-name: Kd (mM)
Your answer is read as mM, so omit the unit and give the number.

Would you mind telling me what Kd value was observed for O=[PH](O)O ? 100
